Let's go through some recorded pKi values for Cannabinoid receptor 1 (Homo sapiens) together.
pKi: −log10 of the molar value.

QUERY: // map `Cc1cc(C)cc(-c2c(O)cc(C(=O)O)cc2O)c1` to recorded pKi (system: Cannabinoid receptor 1 (Homo sapiens))
Sequence (P21554 whole entry): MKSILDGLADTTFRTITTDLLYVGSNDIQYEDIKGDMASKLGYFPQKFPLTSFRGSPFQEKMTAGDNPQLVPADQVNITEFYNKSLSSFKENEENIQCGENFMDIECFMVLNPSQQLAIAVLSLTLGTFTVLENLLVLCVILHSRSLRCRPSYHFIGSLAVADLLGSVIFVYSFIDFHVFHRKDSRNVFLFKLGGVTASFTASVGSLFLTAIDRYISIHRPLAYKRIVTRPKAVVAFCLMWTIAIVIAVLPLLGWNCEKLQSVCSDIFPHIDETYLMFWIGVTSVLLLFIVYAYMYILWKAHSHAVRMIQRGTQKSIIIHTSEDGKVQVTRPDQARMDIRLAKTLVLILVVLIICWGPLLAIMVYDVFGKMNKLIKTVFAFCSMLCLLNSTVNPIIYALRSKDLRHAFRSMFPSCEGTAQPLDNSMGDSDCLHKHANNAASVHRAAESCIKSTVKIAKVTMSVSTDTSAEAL
RESULT: < 5.00

QUERY: Now the same for `COC(=O)c1cc(O)c(-c2cc(C)cc(C)c2)c(O)c1`
RESULT: < 5.00

QUERY: How about `CCCCCOC(=O)c1cc(OC)c(-c2cc(C)cc(C)c2)c(OC)c1` ?
RESULT: < 5.00

====

Target: Cannabinoid receptor 2 (Homo sapiens)
Sequence (P34972 whole entry): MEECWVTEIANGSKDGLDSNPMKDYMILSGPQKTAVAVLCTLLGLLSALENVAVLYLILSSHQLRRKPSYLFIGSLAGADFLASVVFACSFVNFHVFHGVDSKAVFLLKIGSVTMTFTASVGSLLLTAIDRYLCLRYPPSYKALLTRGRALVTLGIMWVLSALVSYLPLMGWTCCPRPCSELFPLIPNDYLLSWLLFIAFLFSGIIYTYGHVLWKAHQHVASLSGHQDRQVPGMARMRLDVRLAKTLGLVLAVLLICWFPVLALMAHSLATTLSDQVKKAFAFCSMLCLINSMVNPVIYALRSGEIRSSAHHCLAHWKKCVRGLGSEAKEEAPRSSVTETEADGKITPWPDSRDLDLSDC
endpoint.name: Ki

Solved cases (8 shown):
INSERT INTO assay_data (chemical_structure, target_entity, assay_value) VALUES
  ('CCCCOC(=O)c1cc(O)c(-c2cc(C)cc(C)c2)c(O)c1', 'Cannabinoid receptor 2 (Homo sapiens)', '> 3.2 µM'),
  ('COc1cc(C(=O)O)cc(OC)c1-c1cc(C)cc(C)c1', 'Cannabinoid receptor 2 (Homo sapiens)', '> 10 µM'),
  ('COC(=O)c1cc(O)c(-c2cc(C)cc(C)c2)c(O)c1', 'Cannabinoid receptor 2 (Homo sapiens)', '> 4.5 µM'),
  ('Cc1cc(C)cc(-c2c(O)cc(C(=O)O)cc2O)c1', 'Cannabinoid receptor 2 (Homo sapiens)', '> 10 µM'),
  ('CCCCCOC(=O)c1cc(OC)c(-c2cc(C)cc(C)c2)c(OC)c1', 'Cannabinoid receptor 2 (Homo sapiens)', '> 10 µM'),
  ('COC(=O)c1cc(O)c(-c2cc(C)cc(C)c2)c(OC)c1', 'Cannabinoid receptor 2 (Homo sapiens)', '> 6.4 µM'),
  ('CCCCCOC(=O)c1cc(O)c(-c2cc(C)cc(C)c2)c(O)c1', 'Cannabinoid receptor 2 (Homo sapiens)', '> 1.1 µM'),
  ('CCCCCOC(=O)c1cc(O)c(-c2ccccc2)c(O)c1', 'Cannabinoid receptor 2 (Homo sapiens)', '> 4 µM');

QUERY: Ki for `COc1cc(C(=O)O)cc(O)c1-c1cc(C)cc(C)c1` ?
RESULT: > 10 µM

QUERY: Input `CCCCCOC(=O)c1cc(O)c(-c2cc(C)cc(C)c2)c(OC)c1`
RESULT: 0.27 µM

====

These molecules were tested on UniProtKB P21554; Ki is the recorded read-out.
Answer with a number only, understood to be in µM.

Consider the following illustrative entries.
INSERT INTO assay_data (chemical_structure, unit_symbol, assay_value) VALUES
  ('CCCCOC(=O)c1cc(O)c(-c2cc(C)cc(C)c2)c(O)c1', 'µM', 2.6),
  ('CCCCCOC(=O)c1cc(O)c(-c2cc(C)cc(C)c2)c(OC)c1', 'µM', 1.4);

QUERY: What value of Ki on UniProtKB P21554 does `CCCCCOC(=O)c1cc(O)c(-c2cc(C)cc(C)c2)c(O)c1` have?
RESULT: 2

====

pKi: −log10 of the molar value.
These records show pKi for Cannabinoid receptor 1 (Homo sapiens, UniProt P21554).

Guide cases for pKi, answers given:
INSERT INTO assay_data (chemical_structure, assay_value) VALUES
  ('COC(=O)c1cc(O)c(-c2cc(C)cc(C)c2)c(OC)c1', '< 5.00'),
  ('COc1cc(C(=O)O)cc(O)c1-c1cc(C)cc(C)c1', '< 5.00');

QUERY: Using the record for `CCCCCOC(=O)c1cc(O)c(-c2ccccc2)c(O)c1` , report its pKi.
RESULT: < 5.00

Values were extracted from ChEMBL document CHEMBL1146227.
